Target: T1, mouse folate receptor alpha (mFRα), recombinant protein (mouse, UniProt P35846 25-232)
T1 construct: Bought recombinant proteins (e.g. biotinylated, Acro Biosystems FO1-M82E9); also called mFOLR1; Ms FOLR1
T1 sequence (P35846 25-232 limits assumed): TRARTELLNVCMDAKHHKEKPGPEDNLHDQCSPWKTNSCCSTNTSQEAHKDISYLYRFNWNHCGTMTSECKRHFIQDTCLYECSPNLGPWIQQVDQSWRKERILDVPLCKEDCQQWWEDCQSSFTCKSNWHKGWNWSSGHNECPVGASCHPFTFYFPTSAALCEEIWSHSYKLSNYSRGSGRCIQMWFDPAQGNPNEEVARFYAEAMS
Assay: BLI off-rate analysis
Flag rule - koff less than 0.0003 s⁻¹ flags yes (1); the remaining entries get no (0).

Item P01500072: P01500001[E1D, G26E, G28P, D72E, N73G]Flag3-His6-GS-NT (VHH, Entry includes tags, linker and NT(8-13)) VHH: DVQLVESGGGLVQPGGSLRLSCAASESPFSGMIMGWYRQAPGKQRELVATVTSHGTTNYADSVKGRFTISREGAKNTVYLQMNSLRPEDTAVYYCNAHFPGIYWGKGTLVTVSS : koff beneath 0.0003 s⁻¹, strictly? yes (1)

Item P01500070: P01500001[E1D, I33F, N73P]Flag3-His6-GS-NT (VHH, Entry includes tags, linker and NT(8-13); produced in HEK-F cells) VHH: DVQLVESGGGLVQPGGSLRLSCAASGSGFSGMFMGWYRQAPGKQRELVATVTSHGTTNYADSVKGRFTISRDPAKNTVYLQMNSLRPEDTAVYYCNAHFPGIYWGKGTLVTVSS : koff beneath 0.0003 s⁻¹, strictly? yes (1)

Item P01500079: P01500001[E1D]Flag3-His6-GS-NT (VHH, Entry includes tags, linker and NT(8-13); also called humanised 2HFO42, P01500079) VHH: DVQLVESGGGLVQPGGSLRLSCAASGSGFSGMIMGWYRQAPGKQRELVATVTSHGTTNYADSVKGRFTISRDNAKNTVYLQMNSLRPEDTAVYYCNAHFPGIYWGKGTLVTVSS : koff beneath 0.0003 s⁻¹, strictly? no (0)

Item P01500071: P01500001[E1D, G26E, I33F]Flag3-His6-GS-NT (VHH, Entry includes tags, linker and NT(8-13)) VHH: DVQLVESGGGLVQPGGSLRLSCAASESGFSGMFMGWYRQAPGKQRELVATVTSHGTTNYADSVKGRFTISRDNAKNTVYLQMNSLRPEDTAVYYCNAHFPGIYWGKGTLVTVSS : koff beneath 0.0003 s⁻¹, strictly? no (0)

Item P01500074: P01500001[E1D, G26E, I33L]Flag3-His6-GS-NT (VHH, Entry includes tags, linker and NT(8-13)) VHH: DVQLVESGGGLVQPGGSLRLSCAASESGFSGMLMGWYRQAPGKQRELVATVTSHGTTNYADSVKGRFTISRDNAKNTVYLQMNSLRPEDTAVYYCNAHFPGIYWGKGTLVTVSS : koff beneath 0.0003 s⁻¹, strictly? no (0)

Item P01500073: P01500001[E1D, G28T, S30I]Flag3-His6-GS-NT (VHH, Entry includes tags, linker and NT(8-13)) VHH: DVQLVESGGGLVQPGGSLRLSCAASGSTFIGMIMGWYRQAPGKQRELVATVTSHGTTNYADSVKGRFTISRDNAKNTVYLQMNSLRPEDTAVYYCNAHFPGIYWGKGTLVTVSS : koff beneath 0.0003 s⁻¹, strictly? no (0)
